Please respond with reported NUDT7 for every item in the list.
study system: NUDT7 (Homo sapiens, UniProt P0C024)
Construct: residues 14-235, E. coli, pNIC28-Bsa4, N-terminal His6 tag removed by TEV, construct 26672 Da
Sequence (P0C024 14-235): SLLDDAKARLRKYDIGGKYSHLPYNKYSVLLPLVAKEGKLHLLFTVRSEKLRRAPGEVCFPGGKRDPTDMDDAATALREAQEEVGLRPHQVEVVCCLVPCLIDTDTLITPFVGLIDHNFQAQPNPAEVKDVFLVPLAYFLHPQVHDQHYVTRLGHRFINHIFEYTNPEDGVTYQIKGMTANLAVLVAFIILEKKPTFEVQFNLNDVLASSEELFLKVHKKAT
Design: Intact protein LC/MS covalent labelling, fragments in pools of five, 200 uM each, 4 °C
measurement parameters: 24 h, 4 °C, pool of five; 200 µM; covalent
Keep the answer to the number alone.

Task: Need NUDT7, item O=C(CCl)N(c1ccccc1)C1CCS(=O)(=O)C1 (centres unmarked) [PCM-0102755]
Output: 0.17

Task: Look at this molecule and give its reported NUDT7. O=C(CCl)NCC1Cc2ccccc2O1 (centres unmarked) [PCM-0103020]
Output: 0

Task: NUDT7 lookup needed for COC(=O)c1c(NC(=O)CCl)sc(C)c1C [PCM-0102322] , thanks.
Output: 0.4

Task: Name the recorded NUDT7 for C=CC(=O)NCC1CCOCO1 (centres unmarked) [PCM-0102648] .
Output: 0

Task: Any idea what NUDT7 was measured for N#CCc1ccc(NC(=O)CCl)cc1 [PCM-0102148] ?
Output: 0.1

Task: So what does the record say about NUDT7 for O=C(CCl)Nc1ccc([N+](=O)[O-])cc1Cl [PCM-0102392] ?
Output: 0.16

Task: Entry under review: Cc1ccc(NC(=O)CCl)cc1I [PCM-0102577] . Reported NUDT7?
Output: 0.34

Task: Data request, read-out NUDT7, for C=CC(=O)N1CC(Oc2ccc(C#N)cc2)C1 [PCM-0103059]
Output: 0

Task: # lookup: NUDT7 of O=C(CCl)Nc1ccc(C(=O)O)cc1 [PCM-0102400]
Output: 0

Task: Value lookup for NUDT7; key = CCOC(=O)C1CCCN(C(=O)CCl)C1 (centres unmarked) [PCM-0103015]
Output: 0

Task: Using the record for CCNC(=O)NC(=O)CCl [PCM-0102654] , report its NUDT7.
Output: 0

Task: // query NUDT7 value for entry Cc1ccc(Cl)cc1NC(=O)CCl [PCM-0102354]
Output: 0

Task: Using the record for O=C(CCl)NNC(=O)C1CCC1 [PCM-0103061] , report its NUDT7.
Output: 0.28

Task: Fill blank: measured NUDT7 of the molecule Cl.O=C(CCl)NCc1cccnc1 [PCM-0102497] is ____.
Output: 0

Task: What value of measured NUDT7 is listed for C=CC(=O)N1CCC(S(=O)(=O)NC)C1 (centres unmarked) [PCM-0102463] ?
Output: 0

Task: Could you tell me which NUDT7 is on file for COC(=O)CNC(=O)CCl [PCM-0102906] ?
Output: 0

Task: What does the record list as NUDT7 for COC(=O)c1c(NC(=O)CCl)sc2c1CCCCC2 [PCM-0102200] ?
Output: 0.11

Task: I'd like to know its NUDT7. The molecule in question is CC(C)N(C(=O)CCl)c1ccccc1 [PCM-0102272]
Output: 0.22

Task: Please look up its NUDT7: O=C(CCl)N1CCN(C(=O)C2COc3ccccc3O2)CC1 (centres unmarked) [PCM-0102996]
Output: 0

Task: Any idea what NUDT7 was measured for O=C(CCl)N(C1CCCCC1)C1CCS(=O)(=O)C1 (centres unmarked) [PCM-0102760] ?
Output: 0.08

* * *

assay method text: in vitro
Design: species or system HB2, CCD841
measurement parameters: human, hek293 cells
Please go through the items and note down their viability at 48 h, 10 µM.
Kindly answer with a numeric value in %, unit omitted.

Task: Find the recorded viability at 48 h, 10 µM belonging to C=CC(=O)Nc1ccc(N(C)C)cc1 and report it.
Output: 81.3

Task: Query: viability at 48 h, 10 µM; subject: C=CC(=O)NCC1=CS(=O)(=O)c2ccccc21
Output: 82.9

Task: Bench note: what viability at 48 h, 10 µM did CN(Cc1ccccc1F)C(=O)CCl show?
Output: 57.9

Task: # lookup: viability at 48 h, 10 µM of C=CC(=O)Nc1cccc(Br)c1
Output: 86.4

Task: Give the measured viability at 48 h, 10 µM of CC(NC(=O)CCl)c1ccc(F)cc1F (centres unmarked) .
Output: 66.4

Task: I am curious: what viability at 48 h, 10 µM value has been reported for Cl.O=C(CCl)N1CCN(Cc2ccc3c(c2)CCO3)CC1 ?
Output: 37.6

Task: Given Cl.O=C(CCl)N1CCN(C2CCS(=O)(=O)C2)CC1 (centres unmarked) , state its recorded viability at 48 h, 10 µM.
Output: 90.2

Task: Endpoint output: viability at 48 h, 10 µM of CSc1ccc(NC(=O)CCl)cc1 . Value?
Output: 3

Task: Need viability at 48 h, 10 µM, item CC1CCC(N(C)C(=O)CCl)CC1 (centres unmarked)
Output: 39.9

Task: Please look up its viability at 48 h, 10 µM: CC(=O)c1cccc(NC(=O)CCl)c1
Output: 1.9

Task: Recorded viability at 48 h, 10 µM of C=CC(=O)Nc1ccc(Br)cc1 , please.
Output: 65.6

Task: If you can, please state the reported viability at 48 h, 10 µM value of C=CC(=O)N1CCC(N2CCS(=O)(=O)CC2)CC1 .
Output: 93.6

Task: GET /values?readout=viability at 48 h, 10 µM&item= CC(c1ccc(F)c(F)c1)N(C)C(=O)CCl (centres unmarked)
Output: 16.4

Task: Quick one: viability at 48 h, 10 µM of O=C(CCl)N1CCN(c2ccc([N+](=O)[O-])cc2)CC1 ?
Output: 1.3

Task: Could you share which viability at 48 h, 10 µM value was measured for Cc1ccc(N(C(=O)CCl)C2C=CS(=O)(=O)C2)cc1C (centres unmarked) ?
Output: 4.1

Task: Which viability at 48 h, 10 µM value is on record for C=CC(=O)N1CCC(S(=O)(=O)C(C)C)CC1 ?
Output: 102

Task: viability at 48 h, 10 µM lookup needed for C=CC(=O)N1CCc2c(ncn(CC)c2=O)C1 , thanks.
Output: 100

* * *

assay method text: in vitro
Set-up: species or system CCD841, HEK293
measurement parameters: human, hb2 cells, read-out: HB-2 Cells Viability (%)
property measured: viability at 48 h, 10 µM (%)
Please reply with the bare figure in % and do not write the unit itself.

Task: viability at 48 h, 10 µM for C=CC(=O)Nc1ccccc1[N+](=O)[O-] ?
Output: 41.2

Task: What value of measured viability at 48 h, 10 µM is listed for O=C(CCl)Nc1nc(-c2ccc(F)cc2)cs1 ?
Output: 5.1

Task: If you can, please state the reported viability at 48 h, 10 µM value of C=CC(=O)N1CCCn2c(cc3ccccc32)C1 .
Output: 104

Task: Consider the compound Cc1cccc(C(=O)NNC(=O)CCl)c1 and give its measured viability at 48 h, 10 µM.
Output: 82.1

Task: Quick check: viability at 48 h, 10 µM of CNC(=O)C1CCCN1C(=O)CCl (stereo not shown) ?
Output: 101

Task: I would be grateful if you could share the reported viability at 48 h, 10 µM for O=C(CCl)Nc1ccc(N2CCOCC2)cc1 .
Output: 74.9

Task: So what does the record say about viability at 48 h, 10 µM for O=C(CCl)Nc1cc2ccccc2cc1C(=O)O ?
Output: 105

Task: Could you share which viability at 48 h, 10 µM value was measured for NC(=O)c1ccsc1NC(=O)CCl ?
Output: 58.5

Task: Reported viability at 48 h, 10 µM for CCOC(=O)C1CCN(C(=O)CCl)CC1 : what is it?
Output: 86

Task: Requested field: viability at 48 h, 10 µM. Item: CC(C)(C)OC(=O)CNC(=O)CCl
Output: 106

Task: Look up viability at 48 h, 10 µM: O=C(CCl)NC(=O)NC12CC3CC(CC(C3)C1)C2
Output: 3.1

Task: Fill in the blank: the reported viability at 48 h, 10 µM of O=C(CCl)Nc1ccccc1N1CCOCC1 is ____.
Output: 99.5

Task: What does the data say about its viability at 48 h, 10 µM? Entry: O=C(CCl)NCC1CCC1
Output: 104

* * *

assay method text: in vitro
Design: species or system HB2, CCD841
measurement parameters: human, hek293 cells
property measured: viability at 48 h, 10 µM (%)
Express the result in % but write the number alone.

Task: Requested field: viability at 48 h, 10 µM. Item: Cc1ccc(C)c(S(=O)(=O)N2CCN(C(=O)CCl)CC2)c1
Output: 3.2

Task: I am curious: what viability at 48 h, 10 µM value has been reported for CCNC(=O)NC(=O)CCl ?
Output: 82.2

Task: Sample CC(=O)Nc1ccc(NC(=O)CCl)c(C(F)(F)F)c1 — what was its viability at 48 h, 10 µM?
Output: 82

Task: For the molecule shown here, CC(=O)NC1CCCN(C(=O)CCl)C1 (stereo not shown) , give the reported viability at 48 h, 10 µM.
Output: 81.8

Task: Would you kindly share the measured viability at 48 h, 10 µM for O=C(CCl)NNC(=O)c1ccccc1 ?
Output: 92.4

Task: Request the reported viability at 48 h, 10 µM associated with O=C(CCl)N1CCNCC1.O=C(O)C(F)(F)F
Output: 92.4

Task: Requested read-out: viability at 48 h, 10 µM. Entry: C=CC(=O)N1CCC(CS(C)(=O)=O)CC1
Output: 100

Task: Any idea what its viability at 48 h, 10 µM is? The molecule is O=C(CCl)Nc1cc2ccccc2cc1C(=O)O
Output: 109

Task: Consider the molecule shown here: CN(Cc1cnn(C)c1)C(=O)CCl.Cl What is its recorded viability at 48 h, 10 µM?
Output: 70.7

Task: For Cc1ccc(C(=O)O)cc1NC(=O)CCl , what is its reported viability at 48 h, 10 µM?
Output: 86.2
